This collection of values is drawn from the supplement of paper PMC7125110.

B1: glmS ribozyme (parent)
chain: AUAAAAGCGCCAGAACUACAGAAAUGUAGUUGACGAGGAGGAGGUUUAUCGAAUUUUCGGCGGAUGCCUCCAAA

# Variants of: B1
# TEST_NAME: self-cleavage kobs at 2500 uM GlcN6P; higher = faster cleavage; RNA array
# COND: with glucosamine-6-phosphate
Variants at the floor of the assay were thinned out.
Answer criterion not met if self-cleavage kobs at 2500 uM GlcN6P is under 0.0002 s⁻¹, and criterion met if it is 0.0002 s⁻¹ or more.

In: Please tell me: is the variant C34U C61A C67U at or over 0.0002 s⁻¹ in terms of self-cleavage kobs at 2500 uM GlcN6P?
Out: criterion not met

In: For C8U A33C then?
Out: criterion not met

In: Same for G7A
Out: criterion not met

In: Try this variant next: G32C A33G U47A U54C A64C C71U
Out: criterion not met

In: Similarly, G32U C34A G44A C68A ?
Out: criterion not met

In: Query C16U U54A next
Out: criterion met

In: For A39G U57A then?
Out: criterion met

In: Further, for G7A C10G G37U ?
Out: criterion not met

In: Now this one: A12U G41C U46G C68A
Out: criterion not met

In: Now try G13U U56C A64U .
Out: criterion not met

In: Try A33C G44U C71A next.
Out: criterion not met

In: And the next one, U46G U54G ?
Out: criterion met

In: Can you check C10U G32A C70U next?
Out: criterion not met

In: Same read-out for G7U U55G U57G C61A A64C C68U ?
Out: criterion not met

In: Follow-up entry: U31G A33U C68G
Out: criterion not met

In: Note, next up: A12G C67A
Out: criterion not met

In: Continue with A14U G40C G44C U45C C70U
Out: criterion not met

In: What about A14U U30C G44A U46G ?
Out: criterion not met

In: Queued: A12U G32U A53G
Out: criterion not met

In: Param item: A36G C58U G59U A64G
Out: criterion not met

In: Here is the next variant: U55A G62U
Out: criterion not met

In: Input G32U U55A
Out: criterion met

In: Okay, and G37C U65C ?
Out: criterion not met

In: Next entry: G9C C16G A39G
Out: criterion not met

In: Would you mind doing G7U C34U as well?
Out: criterion not met

In: Also check C34U G37A
Out: criterion not met

In: Same for G43A C67U
Out: criterion not met

In: G29U G66A , same question.
Out: criterion met

In: Now try G7C C50U .
Out: criterion not met

In: And the next one, G41U U69C ?
Out: criterion not met

In: Query U30G G40C U46G next
Out: criterion not met

In: Then this variant: A36G A48U A64C
Out: criterion not met

In: Record: A14U G62A
Out: criterion not met

In: Same question, G32A C61G U69C this time
Out: criterion not met

In: # repeat for A33C G44C U57A A64U
Out: criterion not met

In: Try A14C C70A next.
Out: criterion not met

In: Can you handle G9C A15U U47G G51C G63C next?
Out: criterion not met

In: Same question for G7C C11U C61A C70G please.
Out: criterion not met

In: Also, A33U C34A G44U A52C please.
Out: criterion not met

In: Cool, now G29U U30G
Out: criterion met

In: Now consider C10U G51A U55C .
Out: criterion not met

In: Repeat for the following variant: U31A U65C
Out: criterion not met

In: Next variant up: C8G G60A C61A
Out: criterion not met

In: Please answer likewise for G41A U45A C71U
Out: criterion not met

In: Further, for A6C A53G ?
Out: criterion not met

In: For U30C then?
Out: criterion met
